Data provenance: the nanobody polyreactivity screen of Harvey et al. (2022)

# experiment: yeast display, Sf9 membrane polyspecificity reagent, FACS + sequencing; frameworks hold sequencing errors
property: polyreactivity (PSR sort gate)

{"columns": ["chain", "reported_result"],
 "data": [
  ["QDQLVESGGGLVQAGGSLRLSCAASGRNFYRYVMGWYRQAPGKERELVAAITSSGGSTYYADSVKGRFTISRDNAKNTFYLQMNSLKPEDTAVYYCAADRYTRYRYYYWGKGTQVTVSS", "high polyreactivity"],
  ["QVQLVESGGGLVQAGGSLRLSCAASGFIFYSYAMGWYRQAPGKERELVATITSGGSTNYADSVKGRFTISRDNAKNTVYLQMNSLKPEDTAVYYCAARYYPFWARRNRYDYWGQGTQVTVSS", "high polyreactivity"]
]}
